Sourced from the supplement of paper PMC10567573

B1: BTBD1 (parent)
chain: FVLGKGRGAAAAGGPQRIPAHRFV

Variants of: B1
experiment: protein stability index of a GFP-peptide fusion (GPS, HEK-293T) (PSI 1-6); higher = more stable;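 further: lentivirally expressed fusions sorted by FACS into six bins by GFP to DsRed ratio, PSI derived from sequencing read proportions per bin multiplied by bin number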
protocol conditions: c terminus: a fixed tail appended
Give measured protein stability index for each item. Keep answers brief.
One number for each entry.

Solved cases below.
FKLGKGRGAAAAGGPQRIPAHRFV : 2.85
FVLGKGRGAAAAFGPQRIPAHRFV : 1.3
FVLGKGRGAAAAGGPQRIPAHVFV : 2.14
FVLGKGRGAAAAGGPQQIPAHRFV : 1.92

Dear colleague, could you send me protein stability index for each of the items below? Thanks.
1. FVLGKGRGAKAAGGPQRIPAHRFV
2. FVLGKGRGAAAAGGPQRIPAARFV
3. FVLGKGRGAAAAGGQQRIPAHRFV
4. MVLGKGRGAAAAGGPQRIPAHRFV
5. WVLGKGRGAAAAGGPQRIPAHRFV
6. SVLGKGRGAAAAGGPQRIPAHRFV

1: 2.08; 2: 2.14; 3: 1.5; 4: 2.29; 5: 1.95; 6: 2.92
